src = ChEMBL document CHEMBL4308900

# System: A549
# measurement description: Antiproliferative activity against human A549 cells after 48 hrs by MTT assay
# Format: functional
Some molecules, each annotated with its measured GI50.
Write it as a number; the unit µM goes unstated.

What does the data say about its GI50? Entry: Cc1cc(Nc2cc(N3CCN(C)CC3)nc(Sc3ccc(NC(=O)C4CC4)cc3)n2)n[nH]1
35.8

What does the data say about its GI50? Entry: CC1(C)CC(NC(=O)c2ccc(Nc3nc(Nc4ccc(C(=O)O)cc4)ncc3[N+](=O)[O-])cc2)CC(C)(C)N1[O]
29.6

What does the data say about its GI50? Entry: CC1(C)CC(NC(=O)c2ccc(Nc3nc(Nc4ccc(C(=O)O)cc4)ncc3F)cc2)CC(C)(C)N1[O]
18.5

---

# system tested: Aurora kinase A (Homo sapiens, UniProt O14965)
# Sequence (O14965 whole entry): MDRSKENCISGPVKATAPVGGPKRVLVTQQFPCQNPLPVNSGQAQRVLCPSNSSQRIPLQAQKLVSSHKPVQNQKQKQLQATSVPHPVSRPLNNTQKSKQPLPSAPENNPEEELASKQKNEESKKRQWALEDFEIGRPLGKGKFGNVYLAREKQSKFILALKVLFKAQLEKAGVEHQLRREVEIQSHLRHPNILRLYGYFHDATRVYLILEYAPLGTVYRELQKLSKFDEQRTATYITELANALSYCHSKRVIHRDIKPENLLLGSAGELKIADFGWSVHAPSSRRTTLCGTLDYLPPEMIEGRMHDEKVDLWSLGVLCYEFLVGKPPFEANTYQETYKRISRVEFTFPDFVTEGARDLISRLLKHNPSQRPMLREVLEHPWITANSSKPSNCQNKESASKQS
# measurement description: Inhibition of Aurora A (unknown origin) using kemptide acetate salt as substrate after 30 mins by kinase-Glo luminescence method
# if measured IC50 < 0.2 nM: T  # else: F

CC1(C)CC(NC(=O)c2ccc(Nc3ncc([N+](=O)[O-])c(Nc4ccc(C(=O)Nc5cccc(Cl)c5)cc4)n3)cc2)CC(C)(C)N1[O] :: T
CN1CCC(NC(=O)c2ccc(Nc3ncc(F)c(Nc4ccc(C(=O)Nc5ccccc5Cl)cc4)n3)cc2)CC1 :: F
CC1(C)CC(NC(=O)c2ccc(Nc3ncc([N+](=O)[O-])c(Nc4ccc(Cl)cc4)n3)cc2)CC(C)(C)N1[O] :: F
CC1(C)CC(NC(=O)c2ccc(Nc3ncc([N+](=O)[O-])c(Nc4ccc(O)cc4)n3)cc2)CC(C)(C)N1[O] :: F

API: query returns whether the compound falls strictly under 0.2 nM in IC50. Query: CC1(C)CC(NC(=O)c2ccc(Nc3ncc(F)c(Nc4ccc(C(=O)Nc5ccccc5Cl)cc4)n3)cc2)CC(C)(C)N1[O]
T

API: query returns whether the compound falls strictly under 0.2 nM in IC50. Query: CC1(C)CC(NC(=O)c2ccc(Nc3ncc(F)c(Nc4ccccc4Cl)n3)cc2)CC(C)(C)N1[O]
T

API: query returns whether the compound falls strictly under 0.2 nM in IC50. Query: CC1(C)CC(NC(=O)c2ccc(Nc3ncc([N+](=O)[O-])c(Nc4ccc(C(=O)Nc5ccccc5Cl)cc4)n3)cc2)CC(C)(C)N1[O]
F

---

# Test system: HepG2
# measurement description: Antiproliferative activity against human HepG2 cells after 48 hrs by MTT assay
# Type: functional
# if measured GI50 < 40 µM: Satisfied  # else: Not satisfied

CC1(C)CC(NC(=O)c2ccc(Nc3nc(Nc4ccc(C(=O)O)cc4)ncc3[N+](=O)[O-])cc2)CC(C)(C)N1[O] :: Satisfied

API: query returns whether the molecule falls strictly under 40 µM in GI50. Query: CC1(C)CC(NC(=O)c2ccc(Nc3nc(Nc4ccc(C(=O)O)cc4)ncc3F)cc2)CC(C)(C)N1[O]
Satisfied

API: query returns whether the molecule falls strictly under 40 µM in GI50. Query: Cc1cc(Nc2cc(N3CCN(C)CC3)nc(Sc3ccc(NC(=O)C4CC4)cc3)n2)n[nH]1
Not satisfied

API: query returns whether the molecule falls strictly under 40 µM in GI50. Query: CC1(C)CC(NC(=O)c2ccc(Nc3nc(Nc4ccc(C(=O)O)cc4)ncc3Br)cc2)CC(C)(C)N1[O]
Satisfied

API: query returns whether the molecule falls strictly under 40 µM in GI50. Query: CC1(C)CC(NC(=O)c2ccc(Nc3nc(Nc4ccc(C(=O)O)cc4)ncc3Cl)cc2)CC(C)(C)N1[O]
Not satisfied
